src = patent US20210253720A1

- measured_on: T1, ALK2-FC (UniProt Q04771 21-123, limits assumed)
- T1 construct: Only the embodiments speak of 'human ALK2'; not shown: Fc part
- T1 sequence (looked up): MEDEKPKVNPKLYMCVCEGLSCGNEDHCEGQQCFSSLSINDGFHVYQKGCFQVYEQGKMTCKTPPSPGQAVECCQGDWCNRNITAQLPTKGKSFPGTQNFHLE
- experiment: BLI, ForteBio Octet RED384; monovalent fAB-FH against ALK2-FC
koff for assorted binders
reported_metric: koff (s⁻¹)

binder	reported_metric	quantitative_readout
Antibody 6, monovalent fAB in fAB-FH format (Fab, V domains shown, also called Anti-ALK2 fAB) VH: EVQLLESGGGLVQPGGSLRLSCAASGFTFGRFVMHWVRQAPGKGLEWVSVIGYSGSSTYYADSVKGRFTISRDNSKNTLYLQMNSLRAEDTAVYYCAREPGYYYPSGYYRGPGYWMDVWGQGTLVTVSS VL: DIQMTQSPSSLSASVGDRVTITCRASQGISGNWLTWYQQKPGKAPKLLIYDASNLQSGVPSRFSGSGSGTDFTLTISSLQPEDFATYYCHQSYRGPMTFGQGTKVEIKR	koff	0.00349
Antibody 4, monovalent fAB in fAB-FH format (Fab, V domains shown, also called Anti-ALK2 fAB) VH: QVQLVQSGAEVKKPGSSVKVSCKASGGTFSSYAIHWVRQAPGQGLEWMGRIIPDFGTANYAQKFQGRVTITADESTSTAYMELSSLRSEDTAVYYCARGPTQAIHYFAYWGQGTLVTVSS VL: DIELTQPPSVSVSPGQTASITCSGDNLRKYSAHWYQQKPGQAPVLVIYYDNKRPSGIPERFSGSNSGNTATLTISGTQAEDEADYYCQVYASVHRMVFGGGTKLTVLG	koff	0.000759
Antibody 9, monovalent fAB in fAB-FH format (Fab, V domains shown, also called Anti-ALK2 fAB) VH: QVQLVQSGAEVKKPGSSVKVSCKASGGTFSTHAISWVRQAPGQGLEWMGLIQPRFGTANYAQKFQGRVTITADESTSTAYMELSSLRSEDTAVYYCARDYYGGMAYWGQGTLVTVSS VL: DIVLTQPPSVSGAPGQRVTISCSGSSSNIGQNYVSWYQQLPGTAPKLLIYDNSKRPSGVPDRFSGSKSGTSASLAITGLQAEDEADYYCSSWDLLSKSRVFGGGTKLTVLG	koff	0.0149
Antibody 3, monovalent fAB in fAB-FH format (Fab, V domains shown, also called Anti-ALK2 fAB) VH: EVQLVESGGGLVKPGGSLRLSCAASGFTFNSSAMSWVRQAPGKGLEWVGRIKSKRDGYTTDYAAPVKGRFTISRDDSKNTLYLQMNSLKTEDTAVYYCARDYGGLKFDYWGQGTLVTVSS VL: DIELTQPPSVSVSPGQTASITCSGDNIGTKYAYWYQQKPGQAPVLVIYGDSDRPSGIPERFSGSNSGNTATLTISGTQAEDEADYYCYSADAQQMKAVFGGGTKLTVLG	koff	0.00149
